Tested on: PPARg homodimer (NR concentration 180 nM)
assay_info: PBM binding z-score (relative to random genomic background probes); higher = stronger binding; sequences stand for … in GC…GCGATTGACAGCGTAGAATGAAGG
recorded_metric: PBM binding z-score

[
  {
    "chain": "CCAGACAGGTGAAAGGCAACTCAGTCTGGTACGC",
    "recorded_metric": "PBM binding z-score",
    "quantitative_readout": 0.466
  },
  {
    "chain": "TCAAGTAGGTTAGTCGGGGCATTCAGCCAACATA",
    "recorded_metric": "PBM binding z-score",
    "quantitative_readout": 1.35
  },
  {
    "chain": "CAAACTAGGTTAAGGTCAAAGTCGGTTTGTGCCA",
    "recorded_metric": "PBM binding z-score",
    "quantitative_readout": 4.36
  },
  {
    "chain": "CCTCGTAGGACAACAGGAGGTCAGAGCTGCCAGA",
    "recorded_metric": "PBM binding z-score",
    "quantitative_readout": 1.75
  },
  {
    "chain": "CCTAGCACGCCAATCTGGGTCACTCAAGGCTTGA",
    "recorded_metric": "PBM binding z-score",
    "quantitative_readout": 0.751
  },
  {
    "chain": "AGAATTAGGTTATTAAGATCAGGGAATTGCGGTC",
    "recorded_metric": "PBM binding z-score",
    "quantitative_readout": 1.3
  },
  {
    "chain": "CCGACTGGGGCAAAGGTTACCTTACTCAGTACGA",
    "recorded_metric": "PBM binding z-score",
    "quantitative_readout": 1.61
  },
  {
    "chain": "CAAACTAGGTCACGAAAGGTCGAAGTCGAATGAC",
    "recorded_metric": "PBM binding z-score",
    "quantitative_readout": 3.9
  },
  {
    "chain": "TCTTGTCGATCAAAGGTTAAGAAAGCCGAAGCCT",
    "recorded_metric": "PBM binding z-score",
    "quantitative_readout": 0.668
  },
  {
    "chain": "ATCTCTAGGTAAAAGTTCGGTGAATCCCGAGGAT",
    "recorded_metric": "PBM binding z-score",
    "quantitative_readout": 0.445
  },
  {
    "chain": "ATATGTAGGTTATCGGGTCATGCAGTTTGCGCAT",
    "recorded_metric": "PBM binding z-score",
    "quantitative_readout": 2.79
  },
  {
    "chain": "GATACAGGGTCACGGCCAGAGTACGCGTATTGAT",
    "recorded_metric": "PBM binding z-score",
    "quantitative_readout": 2.36
  }
]

* * *

Tested on: THRa:RXRa (NR concentration 90 nM, RXRa partner concentration 90 nM)
assay_info: PBM binding z-score (relative to random genomic background probes); higher = stronger binding; sequences stand for … in GC…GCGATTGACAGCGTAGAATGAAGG
Okay, here is how we bin by PBM binding z-score: low (below 1), medium (1 to below 3), high (3 or more)

[
  {
    "chain": "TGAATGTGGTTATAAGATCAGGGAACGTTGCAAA",
    "assigned_class": "low"
  },
  {
    "chain": "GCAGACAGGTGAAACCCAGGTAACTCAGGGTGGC",
    "assigned_class": "medium"
  },
  {
    "chain": "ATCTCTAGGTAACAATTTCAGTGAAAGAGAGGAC",
    "assigned_class": "medium"
  },
  {
    "chain": "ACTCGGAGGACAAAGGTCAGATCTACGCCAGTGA",
    "assigned_class": "high"
  },
  {
    "chain": "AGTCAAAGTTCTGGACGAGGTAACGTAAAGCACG",
    "assigned_class": "medium"
  },
  {
    "chain": "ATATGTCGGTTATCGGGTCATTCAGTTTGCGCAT",
    "assigned_class": "high"
  },
  {
    "chain": "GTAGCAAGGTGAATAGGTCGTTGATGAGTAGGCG",
    "assigned_class": "medium"
  },
  {
    "chain": "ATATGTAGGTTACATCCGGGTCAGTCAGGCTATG",
    "assigned_class": "high"
  },
  {
    "chain": "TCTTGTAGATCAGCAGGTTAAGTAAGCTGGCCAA",
    "assigned_class": "low"
  },
  {
    "chain": "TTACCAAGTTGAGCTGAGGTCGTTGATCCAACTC",
    "assigned_class": "high"
  },
  {
    "chain": "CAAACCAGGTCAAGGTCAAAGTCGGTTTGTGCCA",
    "assigned_class": "high"
  },
  {
    "chain": "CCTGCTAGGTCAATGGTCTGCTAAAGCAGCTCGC",
    "assigned_class": "medium"
  },
  {
    "chain": "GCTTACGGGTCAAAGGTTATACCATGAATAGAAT",
    "assigned_class": "high"
  },
  {
    "chain": "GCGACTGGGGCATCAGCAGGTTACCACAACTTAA",
    "assigned_class": "low"
  },
  {
    "chain": "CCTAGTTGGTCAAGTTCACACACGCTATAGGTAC",
    "assigned_class": "medium"
  },
  {
    "chain": "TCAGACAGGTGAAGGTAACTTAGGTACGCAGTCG",
    "assigned_class": "medium"
  },
  {
    "chain": "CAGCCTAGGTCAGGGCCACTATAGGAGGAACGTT",
    "assigned_class": "medium"
  },
  {
    "chain": "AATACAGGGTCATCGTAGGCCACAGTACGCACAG",
    "assigned_class": "high"
  },
  {
    "chain": "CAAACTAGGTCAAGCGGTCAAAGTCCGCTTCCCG",
    "assigned_class": "high"
  },
  {
    "chain": "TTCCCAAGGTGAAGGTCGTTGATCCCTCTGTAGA",
    "assigned_class": "medium"
  },
  {
    "chain": "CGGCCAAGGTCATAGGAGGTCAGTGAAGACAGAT",
    "assigned_class": "high"
  },
  {
    "chain": "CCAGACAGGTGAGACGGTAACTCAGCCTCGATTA",
    "assigned_class": "low"
  },
  {
    "chain": "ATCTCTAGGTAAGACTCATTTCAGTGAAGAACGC",
    "assigned_class": "low"
  },
  {
    "chain": "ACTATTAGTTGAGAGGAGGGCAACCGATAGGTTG",
    "assigned_class": "medium"
  },
  {
    "chain": "TCTAGCAGGCCAGACGGTCACTCAAGAGGTACGG",
    "assigned_class": "low"
  },
  {
    "chain": "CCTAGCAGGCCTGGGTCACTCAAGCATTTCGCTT",
    "assigned_class": "medium"
  },
  {
    "chain": "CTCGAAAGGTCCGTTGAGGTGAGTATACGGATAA",
    "assigned_class": "high"
  },
  {
    "chain": "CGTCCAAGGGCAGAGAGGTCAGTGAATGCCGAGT",
    "assigned_class": "medium"
  },
  {
    "chain": "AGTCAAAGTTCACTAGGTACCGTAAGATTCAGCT",
    "assigned_class": "medium"
  },
  {
    "chain": "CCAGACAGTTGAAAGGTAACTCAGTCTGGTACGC",
    "assigned_class": "low"
  },
  {
    "chain": "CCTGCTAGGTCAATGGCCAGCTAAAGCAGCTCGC",
    "assigned_class": "medium"
  },
  {
    "chain": "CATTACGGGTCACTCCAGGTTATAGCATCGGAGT",
    "assigned_class": "high"
  },
  {
    "chain": "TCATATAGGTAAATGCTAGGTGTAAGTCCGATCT",
    "assigned_class": "low"
  },
  {
    "chain": "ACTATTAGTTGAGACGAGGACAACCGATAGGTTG",
    "assigned_class": "high"
  },
  {
    "chain": "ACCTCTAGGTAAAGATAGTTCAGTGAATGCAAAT",
    "assigned_class": "low"
  },
  {
    "chain": "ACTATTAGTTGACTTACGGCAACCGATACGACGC",
    "assigned_class": "low"
  },
  {
    "chain": "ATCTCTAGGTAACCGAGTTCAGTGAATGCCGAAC",
    "assigned_class": "medium"
  },
  {
    "chain": "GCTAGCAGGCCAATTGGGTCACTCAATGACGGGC",
    "assigned_class": "medium"
  },
  {
    "chain": "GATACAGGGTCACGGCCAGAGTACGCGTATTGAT",
    "assigned_class": "high"
  },
  {
    "chain": "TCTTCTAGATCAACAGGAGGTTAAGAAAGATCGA",
    "assigned_class": "low"
  },
  {
    "chain": "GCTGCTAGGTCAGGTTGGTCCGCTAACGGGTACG",
    "assigned_class": "medium"
  },
  {
    "chain": "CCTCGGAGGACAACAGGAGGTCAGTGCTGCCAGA",
    "assigned_class": "medium"
  },
  {
    "chain": "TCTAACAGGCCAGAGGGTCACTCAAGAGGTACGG",
    "assigned_class": "medium"
  },
  {
    "chain": "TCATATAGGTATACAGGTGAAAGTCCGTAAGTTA",
    "assigned_class": "low"
  },
  {
    "chain": "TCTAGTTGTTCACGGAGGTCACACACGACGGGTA",
    "assigned_class": "high"
  },
  {
    "chain": "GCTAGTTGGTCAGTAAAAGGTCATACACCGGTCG",
    "assigned_class": "high"
  },
  {
    "chain": "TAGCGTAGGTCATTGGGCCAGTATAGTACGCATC",
    "assigned_class": "medium"
  },
  {
    "chain": "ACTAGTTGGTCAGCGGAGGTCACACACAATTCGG",
    "assigned_class": "high"
  }
]
